experimental_system: ferroportin (Fpn) (Mus musculus, UniProt Q9JHI9)
Construct: endogenous in cells
assay_text: Hepcidin Internalization Assay (J774)
condition_context: Average (AVE) IC50 of multiple measurements; inhibition of TMR-hepcidin (25 nM) internalization into J774 cells
measured_endpoint: IC50 (nM)

- O=C(NCc1ncccc1F)c1coc(CCNCCc2nc3cc4c(cc3n2CCN2CCCCC2)OCCO4)n1: 4.9

1: CCn1c(CCNCCc2nc(C(=O)NCc3ncccc3F)co2)nc2ccccc21
2: Cc1noc(C)c1CCn1c(CCNCCc2nc(C(=O)NCc3ncccc3F)co2)nc2ccccc21
In: Which is greater in IC50, the first item 1 or the second item 2 ? Output the label that corresponds to your choice.
Out: 1

I: CCCCn1c(CCNCCc2nc(C(=O)NCc3ncccc3F)co2)nc2ccc(-c3ccccc3)cc21
II: COc1cccc(CCn2c(CCNCCc3nc(C(=O)NCc4ncccc4F)co3)nc3ccccc32)c1
In: Which gives the smaller IC50 number: I or II ? Output the label that corresponds to your choice.
Out: II

P: CCCCn1c(C2(CNCCc3nc(C(=O)NCc4ncccc4F)co3)CCCCC2)nc2ccccc21
Q: O=C(NCc1ncccc1F)c1coc(CCNCCc2nc3ccccc3n2CC2CC2)n1
In: Which is greater in IC50, the first item P or the second item Q ? Output the label that corresponds to your choice.
Out: P

---

experimental_system: ferroportin (Fpn) (Mus musculus)
Construct: endogenous in cells
Sequence (Q9JHI9 1-570): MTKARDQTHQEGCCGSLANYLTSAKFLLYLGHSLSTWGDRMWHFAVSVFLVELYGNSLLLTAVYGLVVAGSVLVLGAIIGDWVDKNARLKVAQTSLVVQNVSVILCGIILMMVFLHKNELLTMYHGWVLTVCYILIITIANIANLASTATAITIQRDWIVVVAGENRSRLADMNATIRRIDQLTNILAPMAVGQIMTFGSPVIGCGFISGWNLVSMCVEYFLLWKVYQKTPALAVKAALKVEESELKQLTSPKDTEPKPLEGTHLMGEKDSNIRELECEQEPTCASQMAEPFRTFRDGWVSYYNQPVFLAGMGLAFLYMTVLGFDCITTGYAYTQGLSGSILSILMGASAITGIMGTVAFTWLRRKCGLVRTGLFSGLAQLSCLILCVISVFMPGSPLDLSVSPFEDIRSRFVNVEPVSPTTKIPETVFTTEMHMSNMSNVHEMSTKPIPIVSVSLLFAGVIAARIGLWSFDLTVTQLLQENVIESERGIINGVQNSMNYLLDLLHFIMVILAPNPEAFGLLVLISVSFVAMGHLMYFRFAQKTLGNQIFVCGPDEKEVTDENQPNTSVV
assay_text: Hepcidin Internalization Assay (J774)
condition_context: Average (AVE) IC50 of multiple measurements; inhibition of TMR-hepcidin (25 nM) internalization into J774 cells
measured_endpoint: IC50 (nM)

A: COc1cccc(-n2c(CCNCCc3nc(C(=O)NCc4ncccc4F)co3)nc3cc4c(cc32)OCCO4)c1
B: O=C(NCc1ncccc1F)c1coc(CCNCCc2nc3cc4c(cc3n2CCOC2CCCCC2)OCCO4)n1
In: Which gives the smaller IC50 number: A or B ? Output the label that corresponds to your choice.
Out: B
(B: 0.9 nM, A: 2 nM)

---

experimental_system: ferroportin (Fpn) (Mus musculus)
Construct: endogenous in cells
assay_text: Hepcidin Internalization Assay (J774)
condition_context: Average (AVE) IC50 of multiple measurements; inhibition of TMR-hepcidin (25 nM) internalization into J774 cells
measured_endpoint: IC50 (nM)

* O=C(NCc1ncccc1F)c1coc(CCNCCc2nc3ccccc3n2CCc2ncco2)n1 | 2.8

1: O=C(NCc1ncccc1F)c1coc(CCNCCc2nc3cc4c(cc3n2-c2ccccc2)OCO4)n1
2: CCCCn1c(CCNCCc2nc(C(=O)NCc3ncccc3F)co2)nc2cc(OC)c(OC)cc21
In: Which gives the smaller IC50 number: 1 or 2 ? Output the label that corresponds to your choice.
Out: 1
(1: 2 nM, 2: 17 nM)

---

experimental_system: ferroportin (Fpn) (Mus musculus)
Construct: endogenous in cells
assay_text: Hepcidin Internalization Assay (J774)
condition_context: Average (AVE) IC50 of multiple measurements; inhibition of TMR-hepcidin (25 nM) internalization into J774 cells
measured_endpoint: IC50 (nM)

Below, 3 compounds whose answers are already recorded.
- COCCn1c(C2CN(CCc3nc(C(=O)NCc4ncccc4F)co3)C2)nc2ccccc21 [Example 96]: 223
- O=C(NCc1ncccc1F)c1coc(CCNCCc2nc3ccccc3n2CCC2CC2)n1 [Example 21]: 1
- COCCOCCn1c(CCNCCc2nc(C(=O)NCc3ncccc3OC)co2)nc2cc3c(cc21)OCCO3 [Example 66]: 5

I: Cn1ccnc1CCn1c(CCNCCc2nc(C(=O)NCc3ncccc3F)co2)nc2ccccc21 [Example 34]
II: COCCn1c(CCNCCc2nc(C(=O)NCc3ncccc3OC)co2)nc2cc3c(cc21)OCO3 [Example 70]
In: Which gives the smaller IC50 number: I or II ? Output the label that corresponds to your choice.
Out: II

A: O=C(NCc1ncccc1F)c1coc(CCNCCc2nc3ccccc3n2Cc2ccccc2)n1 [Example 17]
B: CCCCn1c(CCNCCc2nc(C(=O)NCc3ncccc3C(F)(F)F)co2)nc2ccccc21 [Example 47]
In: Which gives the smaller IC50 number: A or B ? Output the label that corresponds to your choice.
Out: A
(A: 0.8 nM, B: 8 nM)

A: CCCCn1c(CCNCCc2nc(C(=O)NCc3ccccn3)co2)nc2ccccc21 [Example 11]
B: COc1cccnc1CNC(=O)c1coc(CCNCCc2nc3cc4c(cc3n2CCc2ncco2)OCCO4)n1 [Example 95]
C: COc1cccc(-n2c(CCNCCc3nc(C(=O)NCc4ncccc4F)co3)nc3ccccc32)c1 [Example 63]
In: Sort by IC50, descending. Output spec: a listing of the labels in the requested order.
Out: B, A, C
(B: 26 nM, A: 2 nM, C: 0.8 nM)

---

experimental_system: ferroportin (Fpn) (Mus musculus, UniProt Q9JHI9)
Construct: endogenous in cells
assay_text: Hepcidin Internalization Assay (J774)
condition_context: Average (AVE) IC50 of multiple measurements; inhibition of TMR-hepcidin (25 nM) internalization into J774 cells
measured_endpoint: IC50 (nM)

Below, 5 compounds whose answers are already recorded.
- CC(C)OCCn1c(CCNCCc2nc(C(=O)NCc3ncccc3F)co2)nc2cc3c(cc21)OCCO3: 2.6
- CCCCn1c(CCNCCc2nc(C(=O)NCc3ncccc3Cl)co2)nc2ccccc21: 1
- O=C(NCc1ncccc1F)c1coc(CCNCCc2nc3ccccc3n2CCc2ccccn2)n1: 2
- COCCn1c(CCNCCc2nc(C(=O)NCc3ncccc3OC)co2)nc2cc3c(cc21)OCCO3: 4.3
- CN1CCN(CCn2c(CCNCCc3nc(C(=O)NCc4ncccc4F)co3)nc3cc4c(cc32)OCCO4)CC1: 150

a: CCCCn1c(C(C)(C)CNCCc2nc(C(=O)NCc3ncccc3F)co2)nc2ccccc21
b: COCCn1c(CCNCCc2nc(C(=O)NCc3ncccc3F)co2)nc2ccccc21
In: Which gives the smaller IC50 number: a or b ? Output the label that corresponds to your choice.
Out: b

I: CCCCn1c(CCNCCc2nc(C(=O)NCc3ncccc3F)co2)nc2ccc(-c3ccccc3OC)cc21
II: COCCn1c(CCNCCc2nc(C(=O)NCc3ncccc3F)co2)nc2cc(C#Cc3ccccn3)ccc21
III: NC(=O)Cn1c(CCNCCc2nc(C(=O)NCc3ncccc3F)co2)nc2ccccc21
IV: CNC(=O)Cn1c(CCNCCc2nc(C(=O)NCc3ncccc3F)co2)nc2ccccc21
In: Exam item: list the entries in increasing order of IC50. Output spec: a listing of the labels in the requested order.
Out: I, II, IV, III
(I: 1.8 nM, II: 4.1 nM, IV: 32 nM, III: 181 nM)

A: O=C(NCc1ncccc1F)c1coc(CCNCCc2nc3ccccc3n2Cc2ccncn2)n1
B: COCCn1c(CCNCCc2nc(C(=O)NCc3ncccc3F)co2)nc2cc3c(cc21)OCO3
In: Which is greater in IC50, the first item A or the second item B ? Output the label that corresponds to your choice.
Out: A
(A: 8.5 nM, B: 3 nM)

---

experimental_system: ferroportin (Fpn) (Mus musculus, UniProt Q9JHI9)
Construct: endogenous in cells
Sequence (Q9JHI9 1-570): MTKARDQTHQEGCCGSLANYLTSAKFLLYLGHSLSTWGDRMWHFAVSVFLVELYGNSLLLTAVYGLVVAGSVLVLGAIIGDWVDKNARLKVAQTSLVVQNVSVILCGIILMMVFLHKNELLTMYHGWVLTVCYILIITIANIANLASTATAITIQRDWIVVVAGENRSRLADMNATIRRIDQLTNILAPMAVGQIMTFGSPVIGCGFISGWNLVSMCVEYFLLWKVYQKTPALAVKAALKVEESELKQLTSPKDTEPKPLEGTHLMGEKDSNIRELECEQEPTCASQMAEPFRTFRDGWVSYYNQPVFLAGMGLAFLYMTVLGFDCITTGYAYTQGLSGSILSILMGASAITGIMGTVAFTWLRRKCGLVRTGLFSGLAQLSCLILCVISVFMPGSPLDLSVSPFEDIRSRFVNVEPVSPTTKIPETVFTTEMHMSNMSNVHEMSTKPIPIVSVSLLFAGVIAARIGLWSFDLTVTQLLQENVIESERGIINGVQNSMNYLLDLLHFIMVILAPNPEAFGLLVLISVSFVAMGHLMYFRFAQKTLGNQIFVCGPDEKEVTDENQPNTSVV
assay_text: Hepcidin Internalization Assay (J774)
condition_context: Average (AVE) IC50 of multiple measurements; inhibition of TMR-hepcidin (25 nM) internalization into J774 cells
pIC50: −log10 of the molar value.
measured_endpoint: pIC50

Below, 2 compounds whose answers are already recorded.
• COc1cccnc1CNC(=O)c1coc(CCNCCc2nc3cc4c(cc3n2CC(F)F)OCCO4)n1 [Example 68] = 8.15
• CN(C)CCn1c(CCNCCc2nc(C(=O)NCc3ncccc3F)co2)nc2cc3c(cc21)OCCO3 [Example 77] = 8.29

A: Cn1c(CCNCCc2nc(C(=O)NCc3ncccc3F)co2)nc2ccccc21 [Example 5]
B: O=C(NCc1ncccc1F)c1coc(CCNCCc2nc3ccccc3n2CCc2nc3ccccc3[nH]2)n1 [Example 44]
C: O=C(NCc1ncccc1F)c1coc(CCNCCc2nc3cc4c(cc3n2CCN2CCOCC2)OCCO4)n1 [Example 81]
In: Sort by pIC50, descending. Output spec: a listing of the labels in the requested order.
Out: B, C, A
